# Test method notes: small-molecule microarray binders of probe aDKK1, primary screen, biochemical, biotinylated probe, 635/667 nm fluorescence (AID 1099);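 also: score merges 667nm spot fluorescence with signal to noise across triplicate slides; reference of the scale not given here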
# Assay conditions: higher = more signal
Tick true if composite z-score is -0.2 or greater. Tick false if composite z-score is less than -0.2.

{"columns": ["Molecule", "Label"],
 "data": [
  ["COc1ccc(C(=O)Nc2ccc(CN3C(=O)[C@@]4(O[C@@H](CCO)[C@H]([Si](C)(C)c5ccc(OC)cc5)[C@H]4C)c4ccccc43)cc2)cc1", "true"],
  ["O=C(NCc1ccccc1)[C@@H]1c2ccccc2C(=O)N(CC23CC4CC(CC(C4)C2)C3)[C@H]1c1ccc(CO)cc1", "false"],
  ["COC(=O)[C@@]1(Cc2ccccc2)[C@H]2c3cc(C(=O)N4CCCC4)n(Cc4nc5ccccc5[nH]4)c3C[C@H]2CN1C(=O)c1ccccc1", "true"],
  ["CC1(C)[C@@H]2CC(C(O)C3C=CC4C(=O)N(c5ccccc5)C(=O)C4N3Nc3ccccc3)=C[C@H]1C2 (some centres undefined)", "true"],
  ["O=C1OCCC/C=C\\[C@H]2OC34C=CCN(c5ccc6ccccc6c5)C(=O)[C@H]3N(CCCCCCO)C(=O)[C@@H]4C12 (some centres undefined)", "false"],
  ["CC(C)(C)OC(=O)CC[C@]12N=C(c3ccc(OCCCO)cc3)O[C@H]1c1ccccc1N(CCS(=O)(=O)c1ccccc1)C2=O", "true"],
  ["O=C1O[C@H](c2ccccc2)[C@H](c2ccccc2)N2[C@H]1[C@@H](C(=O)NC[C@H](O)c1ccccc1)[C@]1(C(=O)Nc3ccccc31)[C@H]2c1ccc(OCCO)cc1", "true"],
  ["C#CCN(Cc1ccccc1Br)C(/C=C/c1ccccc1)CO (centres undefined)", "false"],
  ["COc1ccc([Si](C)(C)[C@@H]2[C@@H](CCO)O[C@]3(C(=O)N(Cc4ccc(N5C(=O)COc6ccccc65)cc4)c4ccccc43)[C@H]2C)cc1", "true"],
  ["CCOC(=O)[C@H]1CC=C2CC1C(=O)N1CCC[C@@H]1[C@@H]2O[Si](C)(C)C(C)(C)C (some centres undefined)", "false"],
  ["CCOC(=O)C1=CCC(c2ccccc2)N(S(=O)(=O)CC[Si](C)(C)C)C1 (centres undefined)", "false"],
  ["COc1ccc(C(=O)Nc2ccc(CN3C(=O)[C@@]4(O[C@@H](CCn5cc([C@H](O)c6ccccc6)nn5)[C@H]([Si](C)(C)c5ccc(OC)cc5)[C@H]4C)c4ccccc43)cc2)cc1", "true"],
  ["COCCOC(=O)N1C(=O)[C@@]2(c3cc(C#CCNC(N)=O)ccc31)[C@H](C(=O)NC[C@H](O)c1ccccc1)[C@H]1C(=O)O[C@H](c3ccccc3)[C@H](c3ccccc3)N1[C@@H]2c1ccccc1OCCO", "false"],
  ["CC(C)c1ccc(NN2C(C(O)C(c3ccccc3)c3ccccc3)C=CC3C(=O)N(c4ccccc4)C(=O)C32)cc1 (centres undefined)", "true"]
]}

----------
# Target under test: Homeobox protein Hox-A13 (Mus musculus)
# Test method notes: inhibitors of HoxA13-DNA binding, primary screen, biochemical, fluorescence polarization, labeled oligonucleotide (AID 1185)
# Assay conditions: 15 min, called active from +8 up or from −8 down
Active and inactive are the calls of the source.
Labels: active, inactive

{"columns": ["Compound", "Target under test", "Label"],
 "data": [
  ["COc1cc2c(cc1O)C=[N+](Cc1cccc(OC(F)(F)F)c1)CC2", "Homeobox protein Hox-A13 (Mus musculus)", "inactive"],
  ["C=CCN(Cc1ccccc1)C(=O)C(c1cccs1)N(CCOCCO)C(=O)/C=C\\C(=O)O (stereo unspecified)", "Homeobox protein Hox-A13 (Mus musculus)", "inactive"],
  ["CCCCC=C[C@@H](NC(=O)Oc1cccc(C(F)(F)F)c1)c1ccccc1", "Homeobox protein Hox-A13 (Mus musculus)", "inactive"],
  ["CCN(CC)c1ccc(N2CC=CC34O[C@@H]5/C=C\\CCC(C)OC(=O)C5[C@H]3C(=O)N(C(CO)C(C)C)[C@@H]4C2=O)cc1 (stereo partly specified)", "Homeobox protein Hox-A13 (Mus musculus)", "inactive"],
  ["CCC(CC)C(O)C1C=CC2C(=O)N(C)C(=O)C2N1Nc1ccccc1 (stereo unspecified)", "Homeobox protein Hox-A13 (Mus musculus)", "inactive"],
  ["COCCOC(=O)N1C(=O)[C@@]2(c3cc(C#CC4=CCCCC4)ccc31)[C@H](C(N)=O)[C@H]1C(=O)O[C@H](c3ccccc3)[C@H](c3ccccc3)N1[C@@H]2c1ccc(OCCO)cc1", "Homeobox protein Hox-A13 (Mus musculus)", "inactive"],
  ["C[C@@H]1ON(c2cccc(C(=O)OC(C)(C)C)c2)[C@H](c2ccc(Br)cc2)[C@H]1C(=O)N1C(=O)OC[C@H]1Cc1ccccc1", "Homeobox protein Hox-A13 (Mus musculus)", "inactive"],
  ["CC1(C)[C@@H]2CC(C(O)C3C=CC4C(=O)N(c5ccccc5)C(=O)C4N3Nc3ccccc3)=C[C@H]1C2 (stereo partly specified)", "Homeobox protein Hox-A13 (Mus musculus)", "inactive"],
  ["CC(C)(C)C(=O)N[C@@H](c1ccc(Cl)cc1)[C@]1(C)C[C@H]1C1CCCCC1", "Homeobox protein Hox-A13 (Mus musculus)", "inactive"],
  ["CC(C)(C)OC(=O)CC[C@@]1(C(=O)NCC(O)CO)N=C(c2ccc(OCCCO)cc2)O[C@@H]1c1ccccc1N=[N+]=[N-] (stereo partly specified)", "Homeobox protein Hox-A13 (Mus musculus)", "inactive"],
  ["COCCOC(=O)N1C(=O)[C@@]2(c3cc(C#Cc4ccc(OC)cc4)ccc31)[C@H](C(=O)N1CCCCCCC1)[C@H]1C(=O)O[C@H](c3ccccc3)[C@H](c3ccccc3)N1[C@@H]2c1ccc(OCCO)cc1", "Homeobox protein Hox-A13 (Mus musculus)", "active"],
  ["COCCCNC(=O)[C@@]1(Cc2ccccc2)N=C(c2ccc(OCCCO)cc2)O[C@H]1c1ccccc1", "Homeobox protein Hox-A13 (Mus musculus)", "inactive"],
  ["O=C1c2ccccc2[C@](Cc2ccccc2I)(C(=O)NC2CC2)[C@H](c2ccc(CO)cc2)N1C1CCCCC1", "Homeobox protein Hox-A13 (Mus musculus)", "inactive"],
  ["O=C1NC(=O)C2C1C=CC(C(O)c1cccc3ccccc13)N2Nc1ccccn1 (stereo unspecified)", "Homeobox protein Hox-A13 (Mus musculus)", "inactive"],
  ["CN(C)C(=O)[C@]1(Cc2ccccc2N=[N+]=[N-])N=C(c2ccc(OCCCO)cc2)O[C@@H]1c1ccccc1", "Homeobox protein Hox-A13 (Mus musculus)", "inactive"],
  ["CCCCc1cn(C[C@H](Cc2ccccc2)NC(=O)N[C@H](CO)CCc2oc(C(C)=O)c(C(=O)OC)c2C(=O)OC)nn1", "Homeobox protein Hox-A13 (Mus musculus)", "inactive"]
]}

----------
# Target under test: Follistatin-related protein 3 (Homo sapiens) (UniProt O95633)
# Sequence (O95633 whole entry, looked up): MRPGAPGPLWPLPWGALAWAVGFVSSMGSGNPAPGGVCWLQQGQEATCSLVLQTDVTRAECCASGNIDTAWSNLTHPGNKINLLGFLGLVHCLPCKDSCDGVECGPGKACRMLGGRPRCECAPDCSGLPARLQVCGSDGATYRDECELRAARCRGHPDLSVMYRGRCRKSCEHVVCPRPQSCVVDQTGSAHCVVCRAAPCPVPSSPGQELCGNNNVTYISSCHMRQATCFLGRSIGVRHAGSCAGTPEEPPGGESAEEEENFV
# Test method notes: FSTL3 binders on small-molecule microarrays, primary screen, biochemical, small-molecule microarray, 635 nm fluorescence (AID 1105);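 also: score merges emission near 667 nm and signal to noise per printed spot across three slides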
# Assay conditions: FSTL3 binding, higher = more signal

{"columns": ["Compound", "composite z-score"],
 "data": [
  ["C[C@@H]1ON(c2cccc(C(=O)OC(C)(C)C)c2)[C@H](c2ccc(Br)cc2)[C@H]1C(=O)N1C(=O)OC[C@H]1Cc1ccccc1", 1.03],
  ["O=C1OCCC/C=C\\[C@H]2OC34C=CCN(Cn5nnc6ccccc65)C(=O)[C@H]3N(CCCCCCO)C(=O)[C@@H]4C12 (some centres not stated)", -0.321],
  ["CCCCCN1CC=CC23O[C@@H]4/C=C\\CCCOC(=O)C4[C@H]2C(=O)N(CCCO)[C@@H]3C1=O (some centres not stated)", -0.352],
  ["O=C(NCC(F)(F)F)[C@@H]1c2ccccc2C(=O)N(C2CCCCC2)[C@H]1c1ccc(CO)cc1", 0.177],
  ["CN1C(=O)C2C=CC(C(O)C3=C[C@H]4C[C@@H](C3)C4(C)C)N(Nc3ccccc3)C2C1=O (some centres not stated)", 1.19],
  ["O=C1O[C@H](c2ccccc2)[C@H](c2ccccc2)N2[C@H]1[C@@H](C(=O)O)[C@]1(C(=O)Nc3ccc(C#CC4=CCCCC4)cc31)[C@H]2c1ccccc1OCCO", 1.23],
  ["COC(=O)[C@@]1(Cc2ccccc2)[C@H]2c3cc(C(=O)N4CCCC4)n(Cc4cccc5ccccc45)c3C[C@H]2CN1C(=O)c1ccccc1", 0.272]
]}

----------
Quick reference for z-score among some compounds
# Test method notes: HepG2 liver cancer cell viability effects, profiling panel, resazurin fluorescence, 24 h, PK04 Diversity Set (AID 1172); also: test concentration not given here
# Assay conditions: higher = more signal

{"columns": ["Compound", "z-score"],
 "data": [
  ["COC(=O)[C@@]1(Cc2ccc(F)cc2)[C@H]2c3cc(C(=O)N(C)C)n(Cc4nc5ccccc5[nH]4)c3C[C@H]2CN1C(=O)c1ccccc1", 0.455],
  ["O=C(NCc1ccccc1)[C@@]1(CCS(=O)(=O)c2ccccc2)N=C(c2ccc(OCCCO)cc2)O[C@H]1c1ccccc1", 1.36],
  ["COc1ccc(C(O)C2C=CC3C(=O)NC(=O)C3N2Nc2ccccn2)c2ccccc12 (configuration not stated)", -1.07],
  ["C=C(CCCC)C(=O)CC[C@H](OC(C)=O)c1cccc(OCCO)c1", 0.0379],
  ["CC(C)(C)C(=O)N[C@@H](c1ccc(Cl)cc1)[C@]1(C)C[C@H]1C1CCCCC1", -0.608],
  ["C=C(COC)/C(=C/C[C@@H](OC(C)=O)c1ccc(OCCO)cc1)c1cc(C(=O)OC)ccc1OC", 0.453],
  ["C=CCOC(=O)[C@H]1[C@@H]2C(=O)O[C@@H](c3ccccc3)[C@@H](c3ccccc3)N2[C@@H](c2ccc(OCCOC(=O)[C@@H]3C[C@@H]4C(=O)N5CCC[C@H]5C(=O)N4[C@@H]3c3cccc(OCCO)c3)cc2)[C@]12C(=O)Nc1ccccc12", -1]
]}

These data points were gathered from PubChem BioAssay.
